molecular target: hERG (human ether-á-go-go-related gene) potassium channel (Homo sapiens (Human)); assay: hERG potassium channel current, automatic patch clamp; assay type: cell-based; details: PatchXpress, 5 minutes exposure, room temperature
Sequence (Q12809 whole entry): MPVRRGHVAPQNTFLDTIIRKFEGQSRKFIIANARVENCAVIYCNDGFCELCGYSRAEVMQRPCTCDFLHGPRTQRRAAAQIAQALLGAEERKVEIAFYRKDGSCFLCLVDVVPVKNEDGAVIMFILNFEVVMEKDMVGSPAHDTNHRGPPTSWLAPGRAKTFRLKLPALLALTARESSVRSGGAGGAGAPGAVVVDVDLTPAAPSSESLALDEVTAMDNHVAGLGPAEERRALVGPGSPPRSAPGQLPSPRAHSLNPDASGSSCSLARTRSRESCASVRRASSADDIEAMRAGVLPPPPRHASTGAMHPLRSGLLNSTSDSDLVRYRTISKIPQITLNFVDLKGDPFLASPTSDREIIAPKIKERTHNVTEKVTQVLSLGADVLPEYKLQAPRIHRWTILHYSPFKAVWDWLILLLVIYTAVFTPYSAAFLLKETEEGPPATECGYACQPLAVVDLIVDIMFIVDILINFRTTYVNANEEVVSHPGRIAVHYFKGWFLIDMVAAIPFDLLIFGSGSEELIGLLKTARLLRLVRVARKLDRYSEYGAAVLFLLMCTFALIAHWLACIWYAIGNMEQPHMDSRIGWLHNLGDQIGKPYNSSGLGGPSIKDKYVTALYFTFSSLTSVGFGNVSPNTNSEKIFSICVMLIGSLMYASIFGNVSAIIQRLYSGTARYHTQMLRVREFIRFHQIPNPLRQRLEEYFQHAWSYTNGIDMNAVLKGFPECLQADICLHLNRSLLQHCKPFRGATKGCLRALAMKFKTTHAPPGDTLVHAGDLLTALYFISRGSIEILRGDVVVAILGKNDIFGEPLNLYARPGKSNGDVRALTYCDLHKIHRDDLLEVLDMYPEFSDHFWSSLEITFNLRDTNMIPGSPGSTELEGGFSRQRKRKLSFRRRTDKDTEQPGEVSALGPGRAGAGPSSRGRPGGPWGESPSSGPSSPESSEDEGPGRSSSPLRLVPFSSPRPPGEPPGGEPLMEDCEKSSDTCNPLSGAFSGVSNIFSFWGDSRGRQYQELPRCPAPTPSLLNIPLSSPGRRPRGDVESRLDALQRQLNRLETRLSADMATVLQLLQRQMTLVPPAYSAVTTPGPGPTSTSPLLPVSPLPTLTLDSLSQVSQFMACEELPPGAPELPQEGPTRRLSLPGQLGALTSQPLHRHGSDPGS
Endpoint: IC50

[Q] I'd like to know its IC50. The compound in question is NCCCCN(Cc1nccc2c3ccccc3n(CC(=O)O)c12)[C@H]1CCCc2cccnc21 [drawing 820]
[A] 2700 nM

[Q] Tell me the measured IC50 of NCCCCN(Cc1nccc2c3ccccc3n(CC(N)=O)c12)[C@H]1CCCc2cccnc21 [drawing 832] , please.
[A] 1800 nM

[Q] Entry NCCCCN(Cc1nccc2c3ccccc3n(CCCN3CCNCC3)c12)[C@H]1CCCc2cccnc21 [drawing 822] : reported IC50 = ?
[A] 4100 nM

[Q] What IC50 value was documented for this compound, c1cnc2c(c1)CCCC2N(CCCN1CCNCC1)Cc1nccc2c3ccccc3n(CCN3CCOCC3)c12 (stereo not shown) [drawing 830] ?
[A] 3100 nM

----------
target: CXCR4 (Homo sapiens (Human), UniProt P61073); assay: Functional calcium mobilization assay (SDF-1α induced); format: cell-based; details: CEM cells, SDF-1α challenge at EC80-EC90; read-out: Ca Flux IC50
Sequence (P61073 whole entry): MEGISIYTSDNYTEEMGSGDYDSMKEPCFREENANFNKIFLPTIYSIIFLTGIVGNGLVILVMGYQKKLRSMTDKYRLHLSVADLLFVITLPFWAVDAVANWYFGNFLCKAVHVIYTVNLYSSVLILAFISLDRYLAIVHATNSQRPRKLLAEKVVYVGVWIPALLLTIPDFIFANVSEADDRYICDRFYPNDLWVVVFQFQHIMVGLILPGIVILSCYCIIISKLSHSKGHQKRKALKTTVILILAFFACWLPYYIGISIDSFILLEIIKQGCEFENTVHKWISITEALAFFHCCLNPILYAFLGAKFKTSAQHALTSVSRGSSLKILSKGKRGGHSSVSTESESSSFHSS
pIC50: −log10 of the molar value.
Returns Met if the recorded pIC50 is greater than or equal to 6, and Not met otherwise.

[Q] Exam item: decide whether the reported pIC50 for CC(C)(C)C(=O)N1CCN(CCCN(Cc2nccc3c2[nH]c2ccccc23)C2CCCc3cccnc32)CC1 (stereo not drawn) is at least 6.
[A] Not met

[Q] Check this compound for pIC50 at or above 6: CCNCCCCN(Cc1nccc2c1[nH]c1ccccc12)C1CCCc2cccnc21 (stereo not drawn)
[A] Met

[Q] Check this compound for pIC50 at or above 6: CN1CCN(C(=O)Cn2c3ccccc3c3ccnc(CN(CCCCN)[C@H]4CCCc5cccnc54)c32)CC1 [drawing 725]
[A] Met

[Q] // inclusive: pIC50 at least 6? input: NCCCCN(Cc1nccc2c3ccccc3n(CCCN3CCNCC3=O)c12)[C@H]1CCCc2cccnc21
[A] Met

[Q] Test whether the compound NCCCCN(Cc1cc2c(cn1)[nH]c1ccccc12)[C@H]1CCCc2cccnc21 records pIC50 of 6 or higher.
[A] Met

[Q] Threshold query (pIC50 >= 6) on NCCCCN(Cc1nccc2c1[nH]c1ccccc12)C1CCCc2cccnc21 (stereo not drawn) [drawing 654]
[A] Met

[Q] Please check the record NCCCCN(Cc1nccc2c3ccccc3n(CC(=O)N3CCC(N)CC3)c12)[C@H]1CCCc2cccnc21 and state if its pIC50 is at or above 6.
[A] Not met

[Q] Say whether c1cnc2c(c1)CCCC2N(CCCCN1CCNCC1)Cc1nccc2c1[nH]c1ccccc12 (stereo not drawn) shows pIC50 of 6 or more.
[A] Not met

[Q] In plain terms: is recorded pIC50 at least 6 for NCCCCN(Cc1nccc2c3ccccc3n(CCN3CCOCC3)c12)[C@H]1CCCc2cccnc21 ?
[A] Met

[Q] # check: pIC50 of N[C@H]1CC[C@H](CN(Cc2nccc3c4ccccc4n(CC(=O)N4CCOCC4)c23)[C@H]2CCCc3cccnc32)CC1 is greater than or equal to 6
[A] Not met

[Q] Confirm if pIC50 reported for the compound NCCCCN(Cc1nccc2c3ccccc3n(CC(=O)NC3CCNCC3)c12)[C@H]1CCCc2cccnc21 is 6 or above.
[A] Met

[Q] API: above_or_equal(metric=pIC50, cutoff=6) for item c1ccc(N2CCNCC2)c(CN(Cc2nccc3c2[nH]c2ccccc23)[C@H]2CCCc3cccnc32)c1
[A] Not met

[Q] Could you tell me if the measured pIC50 of CN(C)C(=O)NCCCCN(Cc1nccc2c1[nH]c1ccccc12)C1CCCc2cccnc21 (stereo not drawn) reaches 6 or more?
[A] Met

[Q] Quick check: does O=C(CN(Cc1nccc2c1[nH]c1ccccc12)[C@H]1CCCc2cccnc21)N1CCNCC1 have pIC50 greater than or equal to 6?
[A] Not met

[Q] Evaluate Cn1c2ccccc2c2ccnc(CN(CCCCN)C3CCCc4cccnc43)c21 (stereo not drawn) : pIC50 at minimum 6?
[A] Met

[Q] Has NCCCCN(Cc1nccc2c3ccccc3n(CC(=O)N3CC[S+]([O-])CC3)c12)[C@H]1CCCc2cccnc21 a recorded pIC50 greater than or equal to 6?
[A] Met

[Q] Could you verify whether the entry NCCCCN(Cc1nccc2c3ccccc3n(CC(=O)N3CCOCC3)c12)[C@H]1CCCc2cccnc21 [drawing 701] shows pIC50 of no less than 6?
[A] Met

----------
Please provide measured pIC50 for the entries that follow.
biological target: UniProtKB P61073; assay: Functional calcium mobilization assay (SDF-1α induced); format: cell-based; conditions: CEM cells, SDF-1α challenge at EC80-EC90; read-out: Ca Flux IC50
Friendly reminder that pIC50 comes from taking -log10 of the concentration in mol/L.

[Q] Fill in the recorded pIC50 for this molecule, with UniProtKB P61073 as test system: CCN(Cc1nccc2c3ccccc3n(CCCN)c12)[C@H]1CCCc2cccnc21
[A] 6.00

[Q] Missing value: pIC50, UniProtKB P61073, entry c1cnc2c(c1)CCCC2N(CCCN1CCNCC1)Cc1nccc2c1[nH]c1ccccc12 (stereo not drawn) . Fill in?
[A] 7.74

[Q] Which measured pIC50 belongs to CN(Cc1nccc2c3ccccc3n(CCCCN)c12)[C@H]1CCCc2cccnc21 , tested on UniProtKB P61073?
[A] 5.47

[Q] Please provide the recorded pIC50 for NCCCCN(Cc1nccc2c3ccccc3n(CC(=O)N3CCSCC3)c12)[C@H]1CCCc2cccnc21 , tested on UniProtKB P61073.
[A] 7.11

[Q] Missing value: pIC50, UniProtKB P61073, entry NCCCCN(Cc1nccc2c3ccccc3n(CCCN)c12)[C@H]1CCCc2cccnc21 [drawing 748] . Fill in?
[A] 7.68

[Q] Short answer please: pIC50, UniProtKB P61073, entry c1ccc(CNCCCCN(Cc2nccc3c2[nH]c2ccccc23)C2CCCc3cccnc32)nc1 (stereo not drawn)
[A] 5.29

[Q] Give the reported pIC50 for CN1CCN(CCCN(Cc2nccc3c2[nH]c2ccccc23)[C@H]2CCCc3cccnc32)CC1 (system: UniProtKB P61073).
[A] 6.69

[Q] Param readout= pIC50; system= UniProtKB P61073; entry= NCCCCN(Cc1nccc2c1[nH]c1ccccc12)[C@@H]1CCCc2cccnc21 ; returns value.
[A] 5.87

[Q] Notebook: pull reported pIC50 for UniProtKB P61073, entry c1cnc2c(c1)CCC[C@@H]2N(CCCN1CCNCC1)Cc1cc2c(cn1)[nH]c1ccccc12
[A] 6.48

[Q] Form entry - test system: UniProtKB P61073; read-out: pIC50; molecule: CC(C)(C)OC(=O)[C@@H](N)CCCN(Cc1nccc2c1[nH]c1ccccc12)[C@H]1CCCc2cccnc21
[A] 5.02

[Q] Value wanted: pIC50 (UniProtKB P61073) of entry NCCCCN(Cc1nccc2c3ccccc3n(Cc3ccccc3)c12)[C@H]1CCCc2cccnc21
[A] 7.33

[Q] Give pIC50 (UniProtKB P61073) of the following molecule: CC(c1ccccn1)N(CCCCN)Cc1nccc2c3ccccc3n(CC(=O)N3CCOCC3)c12 (stereo not drawn)
[A] 6.37

[Q] Param readout = pIC50; param system = UniProtKB P61073; param query = c1cnc2c(c1)CCC[C@@H]2N(CCCN1CCNCC1)Cc1nccc2c3ccccc3n(CCN3CCOCC3)c12 ; response: value
[A] 7.62

[Q] Hello, I am looking for reported pIC50 with UniProtKB P61073 for NCCCCN(Cc1nccc2c3ccccc3n(Cc3ccccn3)c12)[C@H]1CCCc2cccnc21 . Could you help?
[A] 7.51

[Q] Param readout = pIC50; param system = UniProtKB P61073; param query = CCOC(=O)Cn1c2ccccc2c2ccnc(CN(CCCCN)[C@H]3CCCc4cccnc43)c21 ; response: value
[A] 7.82

[Q] Query pIC50 on UniProtKB P61073 for NCCCn1c2ccccc2c2ccnc(CN(CCCN3CCNCC3)[C@H]3CCCc4cccnc43)c21
[A] 8.30

[Q] What pIC50 appears in the records for this molecule with UniProtKB P61073? CC(C)(C)OC(=O)Cn1c2ccccc2c2ccnc(CN(CCCN3CCNCC3)[C@H]3CCCc4cccnc43)c21 [drawing 743]
[A] 7.23

[Q] State its pIC50 on UniProtKB P61073: c1cnc2c(c1)CCCC2N(CCCCNC1=NCCN1)Cc1nccc2c1[nH]c1ccccc12 (stereo not drawn)
[A] 5.78

----------
target: CXCR4 (Homo sapiens (Human)); assay: Functional calcium mobilization assay (SDF-1α induced); type: cell-based; settings: CEM cells, SDF-1α challenge at EC80-EC90; read-out: Ca Flux IC50
Note to self: class labels come from recorded IC50, ranges listed here: bottom end: < 30 nM; midrange: ≥ 30 nM and < 2000 nM; top end: ≥ 2000 nM

[Q] The entry to classify is NC(=O)NCCCCN(Cc1nccc2c1[nH]c1ccccc12)[C@H]1CCCc2cccnc21 ; which class holds it?
[A] top end

[Q] State the band of NCCCCN(Cc1nccc2c3ccccc3n(CC(=O)N3CCC(O)CC3)c12)[C@H]1CCCc2cccnc21
[A] midrange

[Q] Please classify: CC(C)(C)OC(=O)Cn1c2ccccc2c2ccnc(CN[C@H]3CCCc4cccnc43)c21
[A] top end

[Q] Given NCCCCN(Cc1nccc2c3ccccc3n(CCCN3CCNC(=O)C3)c12)[C@H]1CCCc2cccnc21 , name the class its IC50 places it in.
[A] bottom end

[Q] Band for the recorded IC50 of CCN(Cc1nccc2c3ccccc3n(CCCN3C(=O)c4ccccc4C3=O)c12)[C@H]1CCCc2cccnc21 ?
[A] midrange

[Q] Class for c1cnc2c(c1)CCC[C@@H]2N(CCCN1CCNCC1)Cc1nccc2c3ccccc3n(CCC3CCOCC3)c12 ?
[A] bottom end

[Q] Sort COCCn1c2ccccc2c2ccnc(CN(CCCN3CCNCC3)[C@H]3CCCc4cccnc43)c21 into one of the categories.
[A] midrange

[Q] Consider NCCCCN(Cc1nccc2c3ccccc3n(CC(=O)N3CCCCC3)c12)[C@H]1CCCc2cccnc21 . To which IC50 class does it belong?
[A] midrange
